In this section, each of the molecules is paired with its reported change in vivo at 20 mg/kg.
- Test system: spontaneously hypertensive rats (SHR)
- Method: Antihypertensive activity in spontaneously hypertensive rats (systolic blood pressure, tail plethysmography)
- Format: in vivo, spontaneously hypertensive rats (SHR) of Okamoto strain
- Assay Conditions: Rattus norvegicus, single oral dose 20 mg/kg, 2 hours after treatment
- Protocol: The antihypertensive activity of the compounds of the invention is tested in spontaneously hypertensive rats (SHR) of Okamoto strain. Systolic blood pressure is monitored by tail plethysmography. The animals are trained for two weeks for the monitoring process. On the day of the experiment the rats are placed in an oven for two hours at 31°±1° C. and blood pressure is recorded graphically. The measurement recorded is the average of five measurements taken in each case. […]
Property: change in vivo at 20 mg/kg (%)

> print(dat)
                                    molecule  unit.info  observed.measurement
 1  CC1=C(C(=O)OCCCN2C(=O)c3ccccc3S2(=O)=O)C(c2ccccc2[N+](=O)[O-])C(C(=O)OC(C)C)=C(C)N1 (stereo not drawn)          %                  3.61
 2  CC1=C(C(=O)OCCCN2C(=O)c3ccccc3S2(=O)=O)C(c2cccc(Cl)c2Cl)C(C(=O)OC(C)C)=C(C)N1 (stereo not drawn)          %                  10.5
 3  CCOC(=O)C1=C(C)NC(C)=C(C(=O)OCCN2C(=O)c3ccccc3S2(=O)=O)C1c1ccccc1C(F)(F)F (stereo not drawn)          %                  27.3
 4  CC1=C(C(=O)OCCN2C(=O)c3ccccc3S2(=O)=O)C(c2cccc([N+](=O)[O-])c2)C(C(=O)OC(C)C)=C(C)N1 (stereo not drawn)          %                  19.7
 5  CC1=C(C(=O)OCCN2C(=O)c3ccccc3S2(=O)=O)C(c2cccc(Cl)c2Cl)C(C(=O)OC(C)(C)C)=C(C)N1 (stereo not drawn)          %                  35.8
 6  CC1=C(C(=O)OCCN2C(=O)c3ccccc3S2(=O)=O)C(c2cccc([N+](=O)[O-])c2)C(C(=O)OC(C)(C)C)=C(C)N1 (stereo not drawn)          %                  24.6
 7  COC(=O)C1=C(C)NC(C)=C(C(=O)OC)C1c1ccccc1[N+](=O)[O-] [nifedipine, reference compound]          %                  35.4
 8  CC1=C(C(=O)OCCN2C(=O)c3ccccc3S2(=O)=O)C(c2ccccc2C(F)(F)F)C(C(=O)OC(C)C)=C(C)N1 (stereo not drawn)          %                  37.1
 9  CCOC(=O)C1=C(C)NC(C)=C(C(=O)OCCCN2C(=O)c3ccccc3S2(=O)=O)C1c1ccccc1C(F)(F)F (stereo not drawn)          %                  18.6
10  COC(=O)C1=C(C)NC(C)=C(C(=O)OCCCN2C(=O)c3ccccc3S2(=O)=O)C1c1ccccc1[N+](=O)[O-] (stereo not drawn)          %                  6.83
11  CC1=C(C(=O)OCCCN2C(=O)c3ccccc3S2(=O)=O)C(c2cccc([N+](=O)[O-])c2)C(C(=O)OC(C)C)=C(C)N1 (stereo not drawn)          %                 -1.01
12  CC1=C(C(=O)OCCN2C(=O)c3ccccc3S2(=O)=O)C(c2cccc(Cl)c2Cl)C(C(=O)OC(C)C)=C(C)N1 (stereo not drawn)          %                  7.45
13  CC1=C(C(=O)OCCN2C(=O)c3ccccc3S2(=O)=O)C(c2ccccc2[N+](=O)[O-])C(C(=O)OC(C)(C)C)=C(C)N1 (stereo not drawn)          %                  23.4
14  CC1=C(C(=O)OCCCN2C(=O)c3ccccc3S2(=O)=O)C(c2ccccc2Cl)C(C(=O)OC(C)C)=C(C)N1 (stereo not drawn)          %                  19.4
15  CCOC(=O)C1=C(C)NC(C)=C(C(=O)OCCCN2C(=O)c3ccccc3S2(=O)=O)C1c1cccc(Cl)c1Cl (stereo not drawn)          %                  35.5
16  COC(=O)C1=C(C)NC(C)=C(C(=O)OCCCN2C(=O)c3ccccc3S2(=O)=O)C1c1ccccc1Cl (stereo not drawn)          %                  11.1
17  COCCOC(=O)C1=C(C)NC(C)=C(C(=O)OCCCN2C(=O)c3ccccc3S2(=O)=O)C1c1ccccc1C(F)(F)F (stereo not drawn)          %                    11
18  COC(=O)C1=C(C)NC(C)=C(C(=O)OCCCN2C(=O)c3ccccc3S2(=O)=O)C1c1cccc(Cl)c1Cl (stereo not drawn)          %                    35
